These entries and their values trace back to patent US20180072997A1.

Experiment: Compound cytotoxicity, XTT-based colorimetric assay
Type: cell-based
Settings: human, uninfected MT2 cells, day 4, XTT
Response field label takes YES when CC50 at 4 days is strictly below 10 µM and NO in all other cases.

smiles.code: COc1ccc(N(C)C(=O)[C@H](Cc2ccccc2)NC(=O)c2cc(Br)cc(C(=O)N[C@@H](Cc3ccccc3)C(=O)N(C)c3ccc(OC)cc3)c2)cc1
answer.label: NO
//
smiles.code: COc1ccc(N(C)C(=O)[C@H](Cc2ccccc2)NC(=O)NS(=O)(=O)N[C@H](Cc2ccccc2)C(=O)N(C)c2ccc(OC)cc2)cc1
answer.label: NO
//
smiles.code: CN(C(=O)[C@H](Cc1ccccc1)NC(=O)c1cccc(C(=O)N[C@@H](Cc2ccccc2)C(=O)N(C)c2ccc3scnc3c2)c1)c1ccc2scnc2c1
answer.label: YES
//
smiles.code: COc1ccc(N(C)C(=O)[C@H](Cc2cc(F)cc(F)c2)NC(=O)Cc2cccc(CC(=O)N[C@@H](Cc3cc(F)cc(F)c3)C(=O)N(C)c3ccc(OC)cc3)c2)cc1
answer.label: YES
//
smiles.code: C=CCN(C(=O)[C@H](Cc1cc(F)cc(F)c1)NC(=O)c1nccnc1C(=O)N[C@@H](Cc1cc(F)cc(F)c1)C(=O)N(CC=C)c1ccc(OC)cc1)c1ccc(OC)cc1
answer.label: NO
//
smiles.code: C=CCN(C(=O)[C@H](Cc1cc(F)cc(F)c1)NC(=O)NS(=O)(=O)N[C@@H](Cc1cc(F)cc(F)c1)C(=O)N(CC=C)c1ccc(OC)nc1)c1ccc(OC)nc1
answer.label: NO
//
smiles.code: CN(C(=O)[C@H](Cc1cc(F)cc(F)c1)NC(=O)NS(=O)(=O)N[C@@H](Cc1cc(F)cc(F)c1)C(=O)N(C)c1ccc2sc(=O)[nH]c2c1)c1ccc2sc(=O)[nH]c2c1
answer.label: NO
//
smiles.code: CN(C(=O)[C@H](Cc1cc(F)cc(F)c1)NC(=O)NS(=O)(=O)N[C@@H](Cc1cc(F)cc(F)c1)C(=O)N(C)c1ccccc1)c1ccccc1
answer.label: NO
//
smiles.code: CN(C(=O)[C@H](Cc1cc(F)cc(F)c1)NC(=O)NS(=O)(=O)N[C@@H](Cc1cc(F)cc(F)c1)C(=O)N(C)c1ccc(C(F)(F)F)nc1)c1ccc(C(F)(F)F)nc1
answer.label: NO
//
smiles.code: COc1ccc(N(C)C(=O)[C@H](Cc2ccccc2)NC(=O)N[C@@H](Cc2ccccc2)C(=O)N(C)c2ccc(OC)cc2)cc1
answer.label: NO

###

Overview of recorded CC50 at 4 days for various compounds
Experiment: Compound cytotoxicity, XTT-based colorimetric assay
Format: cell-based
Settings: human, uninfected MT2 cells, day 4, XTT

smiles.code: COc1ccc(N(C)C(=O)[C@H](Cc2cc(F)cc(F)c2)NC(=O)c2cc(F)c(F)cc2C(=O)N[C@@H](Cc2cc(F)cc(F)c2)C(=O)N(C)c2ccc(OC)cc2)cc1
value.unit: µM
result.comparator: =
CC50 at 4 days: 10
--
smiles.code: CC#CCN(C(=O)[C@H](Cc1cc(F)cc(F)c1)NC(=O)c1cc(F)c(F)cc1C(=O)N[C@@H](Cc1cc(F)cc(F)c1)C(=O)N(CC#CC)c1ccc(OC)cc1)c1ccc(OC)cc1
value.unit: µM
result.comparator: =
CC50 at 4 days: 95.3
--
smiles.code: CN(C(=O)[C@H](Cc1cc(F)cc(F)c1)NC(=O)NS(=O)(=O)N[C@@H](Cc1cc(F)cc(F)c1)C(=O)N(C)c1cccnc1)c1cccnc1
value.unit: µM
result.comparator: ≥
CC50 at 4 days: 100
--
smiles.code: COc1ccc(N(C)C(=O)[C@H](Cc2ccccc2)NC(=O)c2ccc(C(=O)N[C@@H](Cc3ccccc3)C(=O)N(C)c3ccc(OC)cc3)s2)cc1
value.unit: µM
result.comparator: =
CC50 at 4 days: 3.3
--
smiles.code: CN(C(=O)[C@H](Cc1ccccc1)Nc1ncc(-c2cnc(N[C@@H](Cc3ccccc3)C(=O)N(C)c3ccc4scnc4c3)nc2)cn1)c1ccc2scnc2c1
value.unit: µM
result.comparator: ≥
CC50 at 4 days: 100
--
smiles.code: COc1ccc(N(C)C(=O)[C@H](Cc2ccccc2)NC(=O)/C=C/C(=O)N[C@@H](Cc2ccccc2)C(=O)N(C)c2ccc(OC)cc2)cc1
value.unit: µM
result.comparator: =
CC50 at 4 days: 3.5
--
smiles.code: COc1ccc(N(C)C(=O)[C@H](Cc2ccccc2)NC(=O)CNC(=O)NCC(=O)N[C@@H](Cc2ccccc2)C(=O)N(C)c2ccc(OC)cc2)cc1
value.unit: µM
result.comparator: =
CC50 at 4 days: 69.3
--
smiles.code: COc1ccc(N(C)C(=O)[C@H](Cc2ccccc2)NC(=O)NS(=O)(=O)N[C@@H](Cc2ccc(F)cc2)C(=O)N(C)C)cc1
value.unit: µM
result.comparator: ≥
CC50 at 4 days: 100
--
smiles.code: C=CCN(C(=O)[C@H](Cc1cc(F)cc(F)c1)NC(=O)NS(=O)(=O)N[C@@H](Cc1cc(F)cc(F)c1)C(=O)N(CC=C)c1ccc2scnc2c1)c1ccc2scnc2c1
value.unit: µM
result.comparator: =
CC50 at 4 days: 32.7
--
smiles.code: C=CCN(C(=O)[C@H](Cc1cc(F)cc(F)c1)NC(=O)NS(=O)(=O)N[C@@H](Cc1cc(F)cc(F)c1)C(=O)N(CC=C)c1ccc2nccnc2c1)c1ccc2nccnc2c1
value.unit: µM
result.comparator: ≥
CC50 at 4 days: 100
--
smiles.code: COc1ccc(N(C)C(=O)[C@H](Cc2ccccc2)NC(=O)Cc2ccccc2CC(=O)N[C@@H](Cc2ccccc2)C(=O)N(C)c2ccc(OC)cc2)cc1
value.unit: µM
result.comparator: =
CC50 at 4 days: 45

###

Assay: Compound cytotoxicity, XTT-based colorimetric assay
Assay type: cell-based
Conditions: human, uninfected MT2 cells, day 4, XTT
observed.property: CC50 at 4 days (µM)

compound: CN(C(=O)[C@H](Cc1cc(F)cc(F)c1)NC(=O)NS(=O)(=O)N[C@@H](Cc1cc(F)cc(F)c1)C(=O)N(C)c1ccc2sc(=O)n(C)c2c1)c1ccc2sc(=O)n(C)c2c1 [Example 237]
observed.property: CC50 at 4 days
value.unit: µM
result.comparator: =
assay.value: 71.9
--
compound: COc1ccc(N(C)C(=O)[C@H](Cc2cc(F)cc(F)c2)NC(=O)Cn2c(=O)c3ccccc3c(=O)n2CC(=O)N[C@@H](Cc2cc(F)cc(F)c2)C(=O)N(C)c2ccc(OC)cc2)cc1 [Example 93]
observed.property: CC50 at 4 days
value.unit: µM
result.comparator: =
assay.value: 5.7
--
compound: CN(C(=O)[C@H](Cc1ccccc1)NC(=O)c1ccnc(N[C@@H](Cc2ccccc2)C(=O)N(C)c2ccc3scnc3c2)n1)c1ccc2scnc2c1 [Example 154]
observed.property: CC50 at 4 days
value.unit: µM
result.comparator: ≥
assay.value: 100

###

Assay: Compound cytotoxicity, XTT-based colorimetric assay
Format: cell-based
Details: human, uninfected MT2 cells, day 4, XTT
observed.property: CC50 at 4 days (µM)

compound: COc1ccc(N(C)C(=O)[C@H](Cc2cc(F)cc(F)c2)NC(=O)CN2c3ccccc3N(CC(=O)N[C@@H](Cc3cc(F)cc(F)c3)C(=O)N(C)c3ccc(OC)c(F)c3)S2(=O)=O)cc1F
result.comparator: ≥
assay.value: 100
--
compound: COc1ccc(N(C)C(=O)[C@H](Cc2ccccc2)NC(=O)CN(CCO)CC(=O)N[C@@H](Cc2ccccc2)C(=O)N(C)c2ccc(OC)cc2)cc1
result.comparator: =
assay.value: 31.8
--
compound: CCc1ccc(N(C)C(=O)[C@H](Cc2cc(F)cc(F)c2)NC(=O)NS(=O)(=O)N[C@@H](Cc2cc(F)cc(F)c2)C(=O)N(C)c2ccc(CC)nc2)cn1
result.comparator: =
assay.value: 80.1
--
compound: COc1ccc(N(C)C(=O)[C@H](Cc2ccccc2)NC(=O)NS(=O)(=O)N[C@@H](Cc2cc(F)cc(F)c2)C(=O)N(C)c2ccc(OC)cc2)cc1
result.comparator: =
assay.value: 67
--
compound: COc1ccc(N(C)C(=O)[C@H](Cc2ccccc2)NC(=O)c2ccc(C(=O)N[C@@H](Cc3ccccc3)C(=O)N(C)c3ccc(OC)cc3)cc2)cc1
result.comparator: =
assay.value: 3.7
--
compound: Cc1ccc(N(C)C(=O)[C@H](Cc2cc(F)cc(F)c2)NC(=O)NS(=O)(=O)N[C@@H](Cc2cc(F)cc(F)c2)C(=O)N(C)c2ccc(C)nc2)cn1
result.comparator: ≥
assay.value: 100
--
compound: C=CCCN(C(=O)[C@H](Cc1cc(F)cc(F)c1)NS(=O)(=O)NC(=O)N[C@@H](Cc1cc(F)cc(F)c1)C(=O)N(CC=C)c1ccc(OC)cc1)c1ccc(OC)cc1
result.comparator: =
assay.value: 19.2
--
compound: COc1ccc(N(C)C(=O)[C@H](Cc2ccccc2)NC(=O)OCCOC(=O)N[C@@H](Cc2ccccc2)C(=O)N(C)c2ccc(OC)cc2)cc1
result.comparator: =
assay.value: 10.5
--
compound: CN(C(=O)[C@H](Cc1cc(F)cc(F)c1)NC(=O)NS(=O)(=O)N[C@@H](Cc1cc(F)cc(F)c1)C(=O)N(C)c1ccc2c(c1)OCCO2)c1ccc2c(c1)OCCO2
result.comparator: =
assay.value: 43.9
--
compound: COc1ccc(N(C)C(=O)[C@H](Cc2ccccc2)NC(=O)CCCC(=O)N[C@@H](Cc2ccccc2)C(=O)N(C)c2ccc(OC)cc2)cc1
result.comparator: =
assay.value: 21.1
--
compound: COc1ccc(N(C)C(=O)[C@H](Cc2ccccc2)NC(=O)NS(=O)(=O)N[C@@H](Cc2ccccc2)c2nnc(SC)o2)cc1
result.comparator: ≥
assay.value: 100
--
compound: COc1ccc(N(C)C(=O)[C@H](Cc2ccccc2)NC(=O)NS(=O)(=O)N[C@@H](Cc2ccccc2)C(=O)N(C)c2ccc(OC)cc2)cc1
result.comparator: =
assay.value: 77.9
--
compound: C=CCN(C(=O)[C@H](Cc1cc(F)cc(F)c1)NC(=O)c1cc(F)c(F)cc1C(=O)N[C@@H](Cc1cc(F)cc(F)c1)C(=O)N(CC=C)c1ccc(OC)cc1)c1ccc(OC)cc1
result.comparator: =
assay.value: 58.2
--
compound: CN(C(=O)[C@H](Cc1cc(F)cc(F)c1)NC(=O)c1ccc(F)c(C(=O)N[C@@H](Cc2cc(F)cc(F)c2)C(=O)N(C)c2ccc3snnc3c2)c1)c1ccc2snnc2c1
result.comparator: ≥
assay.value: 100
--
compound: COc1ccc(N(C)C(=O)[C@H](Cc2ccccc2)NC(=O)NS(=O)(=O)N[C@@H](Cc2ccccc2)C(=O)N(C)c2ccc(OC)cc2C)cc1
result.comparator: ≥
assay.value: 33.3
--
compound: Cc1ccc(N(C)C(=O)[C@H](Cc2ccccc2)NC(=O)NS(=O)(=O)N[C@@H](Cc2ccccc2)C(=O)N(C)c2ccc(C)c(Cl)c2)cc1Cl
result.comparator: =
assay.value: 16.7
--
compound: COc1ccc(N(C)C(=O)[C@H](Cc2ccccc2)NC(=O)/C=C\C(=O)N[C@@H](Cc2ccccc2)C(=O)N(C)c2ccc(OC)cc2)cc1
result.comparator: =
assay.value: 12.8
--
compound: COc1ccc(N(C)C(=O)[C@H](Cc2cc(F)cc(F)c2)NC(=O)Cn2c(=O)n(CC(=O)N[C@@H](Cc3cc(F)cc(F)c3)C(=O)N(C)c3ccc(OC)cc3)c3ccccc32)cc1
result.comparator: =
assay.value: 11.8
--
compound: COc1ccc(N(C)C(=O)[C@H](Cc2ccccc2)NC(=O)CC(C)(C)C(=O)N[C@@H](Cc2ccccc2)C(=O)N(C)c2ccc(OC)cc2)cc1
result.comparator: =
assay.value: 31.2
--
compound: COc1ccc(N(C)C(=O)[C@H](Cc2ccccc2)NC(=O)NS(=O)(=O)N[C@@H](Cc2ccccc2)C(=O)N(C)c2cc(C)c(OC)cc2C)cc1
result.comparator: =
assay.value: 35.3
--
compound: COc1ccc(N(C)C(=O)[C@H](Cc2ccccc2)NC(=O)C2CCCCC2C(=O)N[C@@H](Cc2ccccc2)C(=O)N(C)c2ccc(OC)cc2)cc1 (mixture of isomers)
result.comparator: ≥
assay.value: 33.3
--
compound: CN(C(=O)[C@H](Cc1cc(F)cc(F)c1)NC(=O)NS(=O)(=O)N[C@@H](Cc1cc(F)cc(F)c1)C(=O)N(C)c1cnc2scnc2c1)c1cnc2scnc2c1
result.comparator: ≥
assay.value: 100
